test: Half life in rat; assay type: ADME, organism-based; conditions: in vivo
QUANTITY NAME: half-life (h)

[[record]]
item_smiles = "CC(C)[C@H](N[C@@H](c1ccc(-c2ccc([C@@H](O)C(F)F)cc2)cc1)C(F)(F)F)C(=O)N[C@H](C#N)Cc1ccc(C#N)cc1F"
unit_of_measurement = "h"
reported_result = 5.2


* * *

experiment: Oral bioavailability in dog; assay type: ADME, organism-based, Canis lupus familiaris; details: in vivo
QUANTITY NAME: bioavailability (%)

[[record]]
item_smiles = "CC(C)[C@H](N[C@@H](c1ccc(-c2ccc([C@@H](O)C(F)F)cc2)cc1)C(F)(F)F)C(=O)N[C@H](C#N)Cc1ccc(C#N)cc1F"
reported_result = 30

